Entries and their measured kinase still bound, per cent of control follow.
# testedOn: UniProt Q04759
# Sequence (Q04759 whole entry, looked up): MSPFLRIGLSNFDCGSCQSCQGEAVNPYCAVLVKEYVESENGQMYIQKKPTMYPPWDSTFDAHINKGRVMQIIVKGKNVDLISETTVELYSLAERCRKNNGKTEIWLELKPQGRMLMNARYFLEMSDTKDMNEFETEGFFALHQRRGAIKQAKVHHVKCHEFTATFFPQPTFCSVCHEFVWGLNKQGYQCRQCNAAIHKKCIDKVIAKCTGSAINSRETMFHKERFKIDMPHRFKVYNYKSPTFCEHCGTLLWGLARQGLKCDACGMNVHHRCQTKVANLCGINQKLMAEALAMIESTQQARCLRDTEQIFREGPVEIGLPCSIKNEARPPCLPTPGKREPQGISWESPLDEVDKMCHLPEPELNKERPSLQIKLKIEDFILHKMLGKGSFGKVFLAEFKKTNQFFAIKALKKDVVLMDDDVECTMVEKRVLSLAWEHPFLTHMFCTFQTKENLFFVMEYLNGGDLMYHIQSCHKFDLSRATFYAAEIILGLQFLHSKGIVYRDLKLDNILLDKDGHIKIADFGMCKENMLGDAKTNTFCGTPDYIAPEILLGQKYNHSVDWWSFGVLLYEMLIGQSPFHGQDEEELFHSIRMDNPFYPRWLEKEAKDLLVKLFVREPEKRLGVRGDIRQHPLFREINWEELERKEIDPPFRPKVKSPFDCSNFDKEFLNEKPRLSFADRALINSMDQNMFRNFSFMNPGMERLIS
# experiment: KINOMEscan competition binding
# studyConditions: compound 10.0 µM
endpoint: kinase still bound, per cent of control (%)

> print(dat)
                                    compound        testedon                                 endpoint  recordedvalue
 1         COc1cc2ncnc(Nc3cccc(Cl)c3)c2cc1OC  UniProt Q04759  kinase still bound, per cent of control            100
 2  COc1cc(N2CCC(C(N)=O)CC2)ccc1Nc1nc(N)c(Cl)c(Nc2ccccc2S(=O)(=O)C(C)C)n1  UniProt Q04759  kinase still bound, per cent of control            100
 3  C=CC(=O)Nc1ccc(C(=O)c2sc(Nc3ccc(N4CCN(C)CC4)cc3OC)nc2N)cc1  UniProt Q04759  kinase still bound, per cent of control             93
 4  N#Cc1cc(-c2ccnc(Nc3ccc(-n4cnc(-c5cccnc5)n4)cc3)n2)cc(N2CCOCC2)c1  UniProt Q04759  kinase still bound, per cent of control            100
 5  COc1cc(C)c(Sc2cnc(NC(=O)c3ccc(CNC(C)C(C)C)cc3)s2)cc1C(=O)N1CCN(C(C)=O)CC1 (centres undefined)  UniProt Q04759  kinase still bound, per cent of control            100
 6  CCN1CCN(Cc2ccc(NC(=O)c3ccc(C)c(/C=C/c4cnc5[nH]ccc5c4OC)c3)cc2C(F)(F)F)CC1  UniProt Q04759  kinase still bound, per cent of control             31
 7  Cc1cn(-c2cc(C(=O)Nc3ccc(C)c(NC(=O)c4ccno4)c3)cc(C(F)(F)F)c2)cn1  UniProt Q04759  kinase still bound, per cent of control            100
 8  CCCS(=O)(=O)Nc1ccc(F)c(C(=O)c2c[nH]c3ncc(Cl)cc23)c1F  UniProt Q04759  kinase still bound, per cent of control             79
 9  CCN(CCO)CCCOc1ccc2c(Nc3cc(CC(=O)Nc4cccc(F)c4)[nH]n3)ncnc2c1  UniProt Q04759  kinase still bound, per cent of control            100
10  CC1=C(C(=O)Nc2cc3cn[nH]c3cc2F)C(c2ccc(C(F)(F)F)cc2)CC(=O)N1 (centres undefined)  UniProt Q04759  kinase still bound, per cent of control             54
11  N#C/C(=C1/Nc2ccccc2S1)c1ccnc(NCCc2cccnc2)n1  UniProt Q04759  kinase still bound, per cent of control            100
12  CCOc1cc(N2CCC(O)CC2)ccc1Nc1ncc2c(n1)N(C)c1ccccc1C(=O)N2C  UniProt Q04759  kinase still bound, per cent of control            100
13  O=c1[nH]c2ccccc2n1C1CCN(Cc2ccc(-c3nc4cc5[nH]cnc5cc4nc3-c3ccccc3)cc2)CC1  UniProt Q04759  kinase still bound, per cent of control             94
14  COc1ccc(N(C(=O)Oc2cc(C(=O)Nc3cccc(C(F)(F)F)c3)ccc2C)c2ccnc(Nc3ccc(N4CCN(C)CC4)cc3)n2)c(OC)c1  UniProt Q04759  kinase still bound, per cent of control            100
